System: Rattus norvegicus
experiment description: Narcotic antagonist activity in sc dosed rat by tail-flick test
Type: functional
endpoint label: AD50

Can you share its AD50? I mean this compound: C=CCCCN1CC[C@]2(C)c3cc(O)ccc3C[C@@H]1[C@@H]2CC (racemic) 1.18 mg/kg

Again, but for CC[C@H]1[C@H]2Cc3ccc(O)cc3[C@@]1(C)CCN2CC1CC1 (racemic) 0.19 mg/kg

Again, but for CCCN1CC[C@]2(C)c3cc(O)ccc3C[C@@H]1[C@@H]2CC (racemic) 0.7 mg/kg

Again, but for CC[C@H]1[C@H]2Cc3ccc(O)cc3[C@@]1(C)CCN2CC=C(C)C (racemic) 3.1 mg/kg

All figures here come from ChEMBL document CHEMBL3272202.
